Tested on: RPMI-8226 leukemia
Test: NCI-60 one-dose screen, 48 h (100 = growth as untreated, 0 = no growth, -100 = all killed)
Conditions: 10 µM unless noted
About 83,000 compounds went through this panel and 20% of them were active in at least one assay; those are over-represented in the sample as a whole.
Assign growth to each entry below.
Give bare numbers, in %.

# count of solved cases: 3
COc1cccc(/C=C/C(=O)c2cc3c(N)c(C(=O)Nc4ccccc4C)sc3nc2C)c1 : -20.8
CCC(C)Nc1ccc(NC(C)CC)cc1 (stereo not drawn) : 65.8
N#Cc1nc2c(S(=O)(=O)c3ccccc3)c(N)n(Cc3cccnc3)c2nc1C#N : 99.2

Batch of 5 compounds: report growth for each.
1. CO[C@H](C(=O)[C@@H](O)[C@@H](C)O)[C@@H]1Cc2cc3cc(O[C@H]4C[C@@H](O[C@H]5C[C@@H](O)[C@H](O)C(C)O5)[C@H](O)C(C)O4)c(C)c(O)c3c(O)c2C(=O)[C@H]1O[C@H]1C[C@@H](O[C@H]2C[C@@H](O[C@H]3C[C@@H](OC)[C@H](O)C(C)O3)[C@@H](O)C(C)O2)C(O)(O)C(C)O1 (stereo partly drawn)
2. Cc1ccc(C)n1/C=C/n1c(C)ccc1C
3. CN1C(=O)N(C)C2C1NC(=S)N2/N=C/C=C/c1ccccc1[N+](=O)[O-] (stereo not drawn)
4. COc1cc2c(cc1O)[C@@]1(C)[C@H](c3ccccc3Br)OC(=O)N1CC2
5. Cc1cc(N2CCCCC2)nc(N2CCN(CC(=O)Nc3ccc4c(ccn4Cc4ccccc4)c3)CC2)n1

1. 9.26
2. 78.6
3. 2.85
4. 67.1
5. 53.4

----------
Test system: UACC-257 melanoma
Assay: NCI-60 one-dose screen, 48 h (100 = growth as untreated, 0 = no growth, -100 = all killed)
Conditions: 10 µM unless noted
Compounds without any hit were thinned out: in the full panel of roughly 83,000, 20% have a hit. Active and inactive are the calls of the source. Rule for the calls: active = growth percent below 10; inactive = the rest.
Assign growth to each entry below.

CC(C)CSc1oc(-c2ccccc2)nc1S(=O)(=O)c1ccccc1 : 92.2% (inactive)

Batch of 3 compounds: report growth for each.
1. Cc1ccc(-c2cc(C(=O)N3N=C(c4ccc(N)cc4)CC3c3ccc(Cl)cc3)c3ccccc3n2)cc1 (centres undefined)
2. CC(C)[C@@]12C[C@@H](OC(=O)COC(=O)c3ccccc3)[C@@](C)(O1)[C@@H]1CC[C@@H](C)[C@H]1[C@@H]2OC(=O)/C=C/c1ccccc1
3. N#C/C(=C\c1ccc(Cl)cc1Cl)C(=O)Nc1ncc(Cc2ccc(Cl)c(Cl)c2)s1

["43.7% (inactive)", "95.3% (inactive)", "93.2% (inactive)"]

Batch of 2 compounds: report growth for each.
1. CC(C)CCSc1nc(Nc2ccccc2)c(C#N)c(-c2ccccc2)n1
2. COc1ccc(NC(=O)c2cccc(C3CCc4c(cc(OC)c(OC)c4OC)O3)c2)cc1 (centres undefined)

["88.2% (inactive)", "46.5% (inactive)"]

----------
System: OVCAR-3 ovarian
Test: NCI-60 one-dose screen, 48 h (100 = growth as untreated, 0 = no growth, -100 = all killed)
Settings: 10 µM unless noted
The panel holds about 83,000 compounds, 20% with a hit somewhere; the sample as a whole holds those more often.
The threshold is inclusive: growth of exactly 40% counts as Criterion met; values below receive Criterion not met.

Some solved cases for reference:
COc1ccc(/C=C/C(=O)c2ccc(Nc3nc(Nc4ccc(F)cc4)nc(Nc4ccc(Cl)cc4)n3)cc2)cc1 : Criterion met
O=C1C(Cl)=C(NCCN2CCOCC2)C(=O)c2ncccc21 : Criterion not met
CC1O[C@@H]2C[C@@](O)([C@H]1O)n1c3ccccc3c3c4c(c5c6ccccc6n2c5c31)C(=O)NC4=O (some centres undefined) : Criterion met
CCCCCCOC(=O)CC1=C(C)/C(=C/c2[nH]c(-c3ccc[nH]3)cc2OC)N=C1C : Criterion not met
CC(C)CCC[C@@H](C)C1CCC2C3CCC4=C/C(=N/OCCN(C)C)CC[C@]4(C)C3CC[C@@]21C (some centres undefined) : Criterion met

# check: growth of COc1ccc(C2C(C#N)=C(N)Oc3c2sc2c(Br)cccc32)cc1 (centres undefined) is greater than or equal to 40%
Criterion not met

# check: growth of COc1ccc(C(C)=O)cc1S(N)(=O)=O is greater than or equal to 40%
Criterion met

# check: growth of CCN(CC)CCN(CCN(CC)CC)c1ccccc1 is greater than or equal to 40%
Criterion met

# check: growth of CCN(CC)S(=O)(=O)c1ccc(S(=O)(=O)N2CCC[C@@H](C(=O)N3CCN(C(=O)OC(C)(C)C)CC3)C2)cc1 is greater than or equal to 40%
Criterion met

# check: growth of COc1ccc2c(c1)c(-c1nonc1-c1cn(C)c3ccc(OC)cc13)cn2C is greater than or equal to 40%
Criterion not met

# check: growth of NC(=S)N/N=C/c1cn(-c2ccccc2)nc1-c1cc2ccccc2oc1=O is greater than or equal to 40%
Criterion not met

# check: growth of N#C/C(=C\c1ccc(Br)cc1)c1cc2ccccc2[nH]1 is greater than or equal to 40%
Criterion met

# check: growth of CN1CCN(c2ccc3c(c2)nc(NNC(=O)c2cnccn2)c2cccn23)CC1 is greater than or equal to 40%
Criterion not met

# check: growth of O=C1OCC2=C1C(c1cccc(F)c1)c1cc3c(cc1N2CCO)OCO3 (centres undefined) is greater than or equal to 40%
Criterion not met

# check: growth of O=C(Nc1ccc(F)cc1)Nc1ccccc1CNc1nc(Nc2ccc(OCCN3CCCC3)cc2)ncc1Cl is greater than or equal to 40%
Criterion not met

# check: growth of COC(=O)C1=Nc2ccc(F)cc2/C1=C\c1sc(Nc2ccc(O)cc2)nc1O is greater than or equal to 40%
Criterion not met

# check: growth of Nc1c(C(=O)Nc2ccncc2)sc2nc3c(cc12)CCCCC3 is greater than or equal to 40%
Criterion met
